B1: Intersectin-1, residues 1156 to 1213; numbered along this chain, Q15811 (parent)
chain: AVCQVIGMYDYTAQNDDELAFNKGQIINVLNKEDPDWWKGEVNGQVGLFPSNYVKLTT

Variants of: B1
Experiment: abundance fitness (aPCA) (normalised: wild type 0, dead -1); higher = more abundant; growth selection in yeast, the domain comes from the species named
Conditions: Homo sapiens
Consider the following variants; for each one, report its abundance fitness.
One number for each entry.

// worked examples, abundance fitness included
Input line: Return reported abundance fitness; argument: G47I
Output line: -0.846

Input line: Item under review: S51C . Reported abundance fitness?
Output line: -0.504

Input line: Given the entry Y9C , report its measured abundance fitness.
Output line: 0.387

Give abundance fitness for each listed item.
1. N22P
2. I26G

Output line:
1: -0.062; 2: -0.857

The measurements presented in this section are drawn from the Human Domainome abundance scans (Beltran et al. 2025).
